Test system: K562 CRISPRi cells
Experiment: Perturb-seq pooled growth measurement (sgRNA counts, growth phenotype γ, relative activity)
Type: cell-based, human
Details: sequencing read counts; 10 days of growth (day twelve after transduction)
From the text: Finally, we sought to use intermediate-activity sgRNAs to explore relationships between expression levels of various genes and the resulting cellular phenotypes. […] In addition to the single-cell transcriptomes, we measured bulk growth phenotypes conferred by sgRNAs in these cells. […]
Just so you know, the groups by Perturb-seq pooled growth sgRNA counts, d10 go like this: category 1 = under 3000, category 2 = from 3000 up to 4000, category 3 = 4000 and over

>>> qualitative_label("POLR2H_+_184081251.23-P1P2_11: sgRNA targeting POLR2H, GGGGCCACGAGAGCAGCGGA, SEQ ID NO: 115 (listed as DNA, chemistry not fully specified)")
"category 1"
>>> qualitative_label("RPS18_+_33239917.23-P1P2_02: sgRNA targeting RPS18, GCTGGGATGCCGCTGGATCA, SEQ ID NO: 42 (listed as DNA, chemistry not fully specified)")
"category 2"
>>> qualitative_label("RPL9_+_39460483.23-P1P2_07: sgRNA targeting RPL9, GGATGTTTCTGCGCTCGTGG, SEQ ID NO: 54 (listed as DNA, chemistry not fully specified)")
"category 3"
>>> qualitative_label("GATA1_−_48645022.23-P1P2_03: sgRNA targeting GATA1, GTGCGCTTGCCACATCCCCA, SEQ ID NO: 120 (listed as DNA, chemistry not fully specified)")
"category 1"
>>> qualitative_label("TUBB_+_30688126.23-P1_01: sgRNA targeting TUBB, GCAGCAGGAAGGTTCTGAGA, SEQ ID NO: 106 (listed as DNA, chemistry not fully specified)")
"category 1"
>>> qualitative_label("non-targeting_00527: non-targeting negative control sgRNA, GTGGGAGCAGATCAAGACTC, SEQ ID NO: 168 (listed as DNA, chemistry not fully specified) [reference compound]")
"category 3"
>>> qualitative_label("RPS15_−_1438413.23-P1P2_02: sgRNA targeting RPS15, GACCAAGGCGATCTCTTCTG, SEQ ID NO: 62 (listed as DNA, chemistry not fully specified)")
"category 2"
>>> qualitative_label("ALDOA_+_30077139.23-P1P2_06: sgRNA targeting ALDOA, GGTCACCAGGATCCCTTCTG, SEQ ID NO: 157 (listed as DNA, chemistry not fully specified)")
"category 2"
>>> qualitative_label("non-targeting_00217: non-targeting negative control sgRNA, GTGAACTCAAAAATCCCGAC, SEQ ID NO: 165 (listed as DNA, chemistry not fully specified) [reference compound]")
"category 3"

* * *

# relative_activity_day5 per record follows
Tested on: K562 CRISPRi cells
Assay: Perturb-seq pooled growth measurement (sgRNA counts, growth phenotype γ, relative activity)
Assay type: cell-based, human
Details: γ relative to perfectly matched sgRNA (_00) of the same gene, day 5
Excerpt: Finally, we sought to use intermediate-activity sgRNAs to explore relationships between expression levels of various genes and the resulting cellular phenotypes. […] In addition to the single-cell transcriptomes, we measured bulk growth phenotypes conferred by sgRNAs in these cells. […]
result_type: relative_activity_day5

>>> value_reported("HSPE1_ + _198365089.23-P1P2_02 (guide GGAGACTGGCAGTCCGGCCC; listed as DNA, chemistry not fully specified)")
0.622
>>> value_reported("TUBB_ + _30688126.23-P1_06 (guide GCGGCAGGACGGTTCTGAGA; listed as DNA, chemistry not fully specified)")
0.8147
>>> value_reported("HSPE1_ + _198365089.23-P1P2_03 (guide GGTGACTCGCAGTCCGGCCC; listed as DNA, chemistry not fully specified)")
0.9158
